Biological target: Sushi domains (SD1/2) protein of GABAB1a (GB1a)
Sequence (Q9Z0U4 29-158): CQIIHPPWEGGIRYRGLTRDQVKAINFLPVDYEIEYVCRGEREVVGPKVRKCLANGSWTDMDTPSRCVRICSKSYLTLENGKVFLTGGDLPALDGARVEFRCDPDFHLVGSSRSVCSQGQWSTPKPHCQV
Assay: FP competition vs TAMRA AJAP-1probe
Non-standard residues stand in square brackets, D forms with d. Sar = CNCC(=O)O
measured-endpoint: Ki (nM)
The response must be a number in nM with no trailing unit.

Consider the reported Ki for these binders:
Ac-PWAIVWGPTVSDED-NH2: 327
Ac-VWAIVWGPTVSRED-NH2: 412
Ac-EDDSDVWWYG[Sar]TGDED-NH2 (SMILES CC(=O)N[C@@H](CCC(=O)O)C(=O)N[C@@H](CC(=O)O)C(=O)N[C@@H](CC(=O)O)C(=O)N[C@@H](CO)C(=O)N[C@@H](CC(=O)O)C(=O)N[C@H](C(=O)N[C@@H](Cc1c[nH]c2ccccc12)C(=O)N[C@@H](Cc1c[nH]c2ccccc12)C(=O)N[C@@H](Cc1ccc(O)cc1)C(=O)NCC(=O)N(C)CC(=O)N[C@H](C(=O)NCC(=O)N[C@@H](CC(=O)O)C(=O)N[C@@H](CCC(=O)O)C(=O)N[C@@H](CC(=O)O)C(N)=O)[C@@H](C)O)C(C)C) […(N-Me-G)TGDED]: 138

Let us examine a further case.
# get_value(readout='Ki', item= `Ac-ETEFIVWGPTGDED-NH2` )
30
